Biological target: JAK3 (Homo sapiens, UniProt P52333)
Construct: endogenous in cells
Sequence (P52333 1-1124): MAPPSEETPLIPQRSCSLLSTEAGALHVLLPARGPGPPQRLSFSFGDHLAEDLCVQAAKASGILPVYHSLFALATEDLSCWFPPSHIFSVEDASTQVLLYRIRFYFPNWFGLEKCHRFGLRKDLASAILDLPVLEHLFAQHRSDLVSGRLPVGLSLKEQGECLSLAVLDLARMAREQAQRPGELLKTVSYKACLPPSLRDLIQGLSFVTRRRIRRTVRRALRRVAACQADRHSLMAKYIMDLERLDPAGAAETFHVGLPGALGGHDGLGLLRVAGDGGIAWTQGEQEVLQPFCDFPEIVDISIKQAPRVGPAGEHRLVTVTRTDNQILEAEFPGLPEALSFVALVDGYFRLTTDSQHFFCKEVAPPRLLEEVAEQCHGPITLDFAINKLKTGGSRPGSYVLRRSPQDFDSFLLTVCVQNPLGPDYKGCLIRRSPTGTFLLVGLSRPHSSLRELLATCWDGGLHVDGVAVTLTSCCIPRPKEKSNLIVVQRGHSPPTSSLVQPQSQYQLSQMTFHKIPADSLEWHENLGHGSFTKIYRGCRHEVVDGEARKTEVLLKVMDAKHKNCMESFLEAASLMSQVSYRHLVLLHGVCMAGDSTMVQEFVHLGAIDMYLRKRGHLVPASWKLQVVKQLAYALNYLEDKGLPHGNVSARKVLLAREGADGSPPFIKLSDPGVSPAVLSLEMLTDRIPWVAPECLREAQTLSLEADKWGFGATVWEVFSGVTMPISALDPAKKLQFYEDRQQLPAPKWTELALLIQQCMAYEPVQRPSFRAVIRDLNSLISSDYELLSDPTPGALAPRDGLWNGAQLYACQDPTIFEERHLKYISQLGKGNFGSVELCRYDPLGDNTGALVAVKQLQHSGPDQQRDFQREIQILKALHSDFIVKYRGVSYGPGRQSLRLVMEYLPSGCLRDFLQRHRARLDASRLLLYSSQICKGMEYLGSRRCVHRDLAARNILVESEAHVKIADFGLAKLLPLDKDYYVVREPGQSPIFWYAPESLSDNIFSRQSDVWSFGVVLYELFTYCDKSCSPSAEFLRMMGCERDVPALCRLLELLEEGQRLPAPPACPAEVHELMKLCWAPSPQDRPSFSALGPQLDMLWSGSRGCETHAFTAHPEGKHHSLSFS
Test: Kinobeads assay, JAK3
Details: mixed Molt4/Ramos cell lysate, dot blot detection
observable: IC50

In [3]: df
Out[3]:
                                   compound          result
0  Cn1cc(Nc2ncc3cnn(Cc4cccc(Cl)c4F)c3n2)cn1        < 100 nM
1  OCCn1cc(Nc2ncc3cnn(Cc4cccc(F)c4F)c3n2)cn1        < 100 nM
2  CN(c1ccc(-n2ncc3cnc(Nc4cnn(C)c4)nc32)cc1)S(C)(=O)=O  100 to 1000 nM
3  Fc1ccccc1Cn1ncc2cnc(Nc3cnn(CCN4CCCCC4)c3)nc21        < 100 nM
4  Cn1cc(Nc2ncc3cnn(Cc4cc(F)cc(F)c4F)c3n2)cn1        < 100 nM

Kindly consider the entry below.
[in] Request the reported IC50 associated with Cn1cc(Nc2ncc3cnn(-c4ccccc4)c3n2)cn1
[out] 100 to 1000 nM
